Target: T1, mouse tissue factor pathway inhibitor (TFPI) (mouse, UniProt O54819 29-289, limits assumed)
T1 construct: bought; also called mTFPI; murine TFPI
T1 sequence (looked up): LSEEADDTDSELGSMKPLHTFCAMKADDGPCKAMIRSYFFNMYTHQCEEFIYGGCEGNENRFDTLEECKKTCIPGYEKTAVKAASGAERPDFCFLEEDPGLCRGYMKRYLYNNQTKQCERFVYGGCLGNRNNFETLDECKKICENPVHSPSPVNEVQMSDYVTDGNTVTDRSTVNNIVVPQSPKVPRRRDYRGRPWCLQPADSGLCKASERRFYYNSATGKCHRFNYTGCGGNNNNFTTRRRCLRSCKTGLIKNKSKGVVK
Assay: SPR, TFPI immobilized
Measured koff of individual entries
Experimental readout: koff

• 2A8-216 (HC S31V+I51D+S55R+K99V/LC Y48F+D91L+V96W) (Fab, V domains shown) VH: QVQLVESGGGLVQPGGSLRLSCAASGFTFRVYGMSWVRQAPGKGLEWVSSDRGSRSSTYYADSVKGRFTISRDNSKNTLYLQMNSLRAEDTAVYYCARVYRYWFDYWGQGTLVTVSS VL: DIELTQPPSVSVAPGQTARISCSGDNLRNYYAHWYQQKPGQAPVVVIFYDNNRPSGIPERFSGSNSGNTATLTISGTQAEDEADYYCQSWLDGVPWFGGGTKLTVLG = 0.000216 s⁻¹
• 2A8-g200 (HC Q1E+R30S+S35D+S55R+S56G+K99L/LC D1S+I2Y+A13S+S21T+R28P+N29K+Y48F+N51V+E80M+S89A+D91W+D92S+G93S+V94T) (Fab, V domains shown) VH: EVQLVESGGGLVQPGGSLRLSCAASGFTFSSYGMDWVRQAPGKGLEWVSSIRGSRGSTYYADSVKGRFTISRDNSKNTLYLQMNSLRAEDTAVYYCARLYRYWFDYWGQGTLVTVSS VL: SYELTQPPSVSVSPGQTARITCSGDNLPKYYAHWYQQKPGQAPVVVIFYDVNRPSGIPERFSGSNSGNTATLTISGTQAMDEADYYCQAWWSSTPVFGGGTKLTVLG = 0.000139 s⁻¹
